Test system: COLO 205 colon
experimental protocol: NCI tumour cell line growth inhibition, 48 h; in the data active = GI50 below about 0.43 µM; inactive = the rest
Possible outcomes: active, inactive

> print(dat)
                                chem.smiles  assigned.category
1                      O=Cc1ccc(O)c2ncccc12           inactive
2  COC(=O)c1cc2oc(/C=C3\SC(=S)N(NC(C)=O)C3=O)cc2n1Cc1ccccc1           inactive
3  O=C(CCCCCCC(=O)Nc1ccc2c(c1)/C(=C/c1ccc[nH]1)C(=O)N2)NO             active
4  COc1cc([N+](=O)[O-])c(OC)cc1-c1nc2sc(Cl)cn2c1/C=N/NC(=N)N/N=C/c1c(-c2cc(OC)c([N+](=O)[O-])cc2OC)nc2sc(Cl)cn12           inactive
5        N=C(N)c1ccc(-c2ccc(-c3cccs3)s2)nc1             active
6  COC(=O)[C@@H](C)C[C@H](Cc1ccccc1)NC(=O)c1csc([C@@H](C[C@H](C(C)C)N(C)C(=O)C2(NC(=O)[C@H]3CCCCN3C)CC2)OC(C)=O)n1             active
7  C=CC(=O)Nc1cccc(C)c1Nc1ncc2cc(-c3c(Cl)c(OC)cc(OC)c3Cl)ccc2n1           inactive
